# Test system: 695427-040-R-J1-PDC complex spheroid viability
# test.description: Anticancer human tumor 695427-040-R-J1-PDC patient-derived colon adenocarcinoma cell line growth inhibition [POLQ]
# experimental.conditions: second compound 10 µM; first compound 0.316 µM; stronger effect = lower value
Recorded viability, T/C, one value per entry.
quantity.name: viability, T/C (%)

• COc1ccc([C@@H](O)c2cc(-c3ncnc4cc(N5CCOCC5)ccc34)c(F)cc2Cl)nn1 + COC1C(OC(N)=O)C(O)C(Oc2ccc3c(O)c(NC(=O)c4ccc(O)c(CC=C(C)C)c4)c(=O)oc3c2C)OC1(C)C = 94.4
• COc1cc2cc(C(=O)CCC(=O)O)sc2cc1OC + Cc1cccc(N(C)C(=O)C2C(O)CCN2c2nc(C)cc(C(F)(F)F)c2C#N)c1 = 101
• COc1cccc2c1C(=O)c1c(O)c3c(c(O)c1C2=O)CC(O)(C(=O)CO)CC3OC1CC(N)C(O)C(C)O1 (stereo not given) + COC1C(OC(N)=O)C(O)C(Oc2ccc3c(O)c(NC(=O)c4ccc(O)c(CC=C(C)C)c4)c(=O)oc3c2C)OC1(C)C = 105
• O=C(c1cc(Cc2n[nH]c(=O)c3ccccc23)ccc1F)N1CCN(C(=O)C2CC2)CC1 + Nc1ccc(C#CCN(C(=O)Cc2ncc(C(F)(F)F)cc2C(F)(F)F)c2ccc(F)cc2)nn1 = 107
• CCc1c2c(nc3ccc(O)cc13)-c1cc3c(c(=O)n1C2)COC(=O)[C@]3(O)CC + Cc1cccc(N(C)C(=O)C2C(O)CCN2c2nc(C)cc(C(F)(F)F)c2C#N)c1 = 58.5
• COc1cccc(OCCCN)c1-c1cc(Nc2cnc(C#N)cn2)n[nH]1 + Nc1ccc(C#CCN(C(=O)Cc2ncc(C(F)(F)F)cc2C(F)(F)F)c2ccc(F)cc2)nn1 = 46.6
• COc1cc2cc(C(=O)CCC(=O)O)sc2cc1OC + COC1C(OC(N)=O)C(O)C(Oc2ccc3c(O)c(NC(=O)c4ccc(O)c(CC=C(C)C)c4)c(=O)oc3c2C)OC1(C)C = 114
• C=CC(=O)N1CCN(c2nc(=O)n(-c3c(C)ccnc3C(C)C)c3nc(-c4c(O)cccc4F)c(F)cc23)C(C)C1 (stereo not given) + Nc1ccc(C#CCN(C(=O)Cc2ncc(C(F)(F)F)cc2C(F)(F)F)c2ccc(F)cc2)nn1 = 102
• CCCS(=O)(=O)Nc1ccc(F)c(C(=O)c2c[nH]c3ncc(-c4ccc(Cl)cc4)cc23)c1F + COC1C(OC(N)=O)C(O)C(Oc2ccc3c(O)c(NC(=O)c4ccc(O)c(CC=C(C)C)c4)c(=O)oc3c2C)OC1(C)C = 91.8
• COc1ccc([C@@H](O)c2cc(-c3ncnc4cc(N5CCOCC5)ccc34)c(F)cc2Cl)nn1 + Cc1cccc(N(C)C(=O)C2C(O)CCN2c2nc(C)cc(C(F)(F)F)c2C#N)c1 = 83.8

---

Recorded viability, T/C, one value per entry.
# Test system: 695427-040-R-J1-PDC complex spheroid viability
# test.description: Anticancer human tumor 695427-040-R-J1-PDC cell line growth inhibition [POLQ];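 further: spheroids exposed to compounds for seven days; 100% = DMSO vehicle control viability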
# experimental.conditions: second compound 10 µM; first compound 0.0316 µM; stronger effect = lower value
# Experimental: Multicellular complex tumor spheroid response to Polymerase (POL) inhibitors (novobiocin, ART-558, RP6685) in combination with a variety of drugs and investigational agents in selected tumor cell lines The POL inhibitors (novobiocin, ART-558, and RP6685) were evaluated both individually and in combination with standard of care and investigational anticancer small molecules within a complex spheroid model of solid tumors. . […]
quantity.name: viability, T/C (%)

- Nc1ccn(C2OC(CO)C(O)C2(F)F)c(=O)n1 (stereo not drawn) + Nc1ccc(C#CCN(C(=O)Cc2ncc(C(F)(F)F)cc2C(F)(F)F)c2ccc(F)cc2)nn1: 92.5
- COc1cc2cc(C(=O)CCC(=O)O)sc2cc1OC + COC1C(OC(N)=O)C(O)C(Oc2ccc3c(O)c(NC(=O)c4ccc(O)c(CC=C(C)C)c4)c(=O)oc3c2C)OC1(C)C: 102
- COc1cccc2c1C(=O)c1c(O)c3c(c(O)c1C2=O)CC(O)(C(=O)CO)CC3OC1CC(N)C(O)C(C)O1 (stereo not drawn) + COC1C(OC(N)=O)C(O)C(Oc2ccc3c(O)c(NC(=O)c4ccc(O)c(CC=C(C)C)c4)c(=O)oc3c2C)OC1(C)C: 103
